- Tgt: Nucleocapsid protein (N) (SARS-CoV-2, UniProt P0DTC9 1-419)
- Method Notes: EMSA; no sdAb; Hill fixed at 5
- Experimental Parameters: protein: recombinant; tags: His6 or His6-MBP N-terminal fusion vector, TEV cleavage; chain copies: 2; label: 5'-FAM on strand 1; blunt
Measured Attribute: Kd (nM)
A number alone suffices; assume nM.

Form field Kd, entry 7mer dsRNA (dsRNA) RNA 1: CACUGAC RNA 2: GUCAGUG : 480
